# experimental-target: Androgen Receptor (AR) (Homo sapiens, UniProt P10275)
# Construct: endogenous in cells; host or cells: VCaP
# Sequence (P10275 whole entry): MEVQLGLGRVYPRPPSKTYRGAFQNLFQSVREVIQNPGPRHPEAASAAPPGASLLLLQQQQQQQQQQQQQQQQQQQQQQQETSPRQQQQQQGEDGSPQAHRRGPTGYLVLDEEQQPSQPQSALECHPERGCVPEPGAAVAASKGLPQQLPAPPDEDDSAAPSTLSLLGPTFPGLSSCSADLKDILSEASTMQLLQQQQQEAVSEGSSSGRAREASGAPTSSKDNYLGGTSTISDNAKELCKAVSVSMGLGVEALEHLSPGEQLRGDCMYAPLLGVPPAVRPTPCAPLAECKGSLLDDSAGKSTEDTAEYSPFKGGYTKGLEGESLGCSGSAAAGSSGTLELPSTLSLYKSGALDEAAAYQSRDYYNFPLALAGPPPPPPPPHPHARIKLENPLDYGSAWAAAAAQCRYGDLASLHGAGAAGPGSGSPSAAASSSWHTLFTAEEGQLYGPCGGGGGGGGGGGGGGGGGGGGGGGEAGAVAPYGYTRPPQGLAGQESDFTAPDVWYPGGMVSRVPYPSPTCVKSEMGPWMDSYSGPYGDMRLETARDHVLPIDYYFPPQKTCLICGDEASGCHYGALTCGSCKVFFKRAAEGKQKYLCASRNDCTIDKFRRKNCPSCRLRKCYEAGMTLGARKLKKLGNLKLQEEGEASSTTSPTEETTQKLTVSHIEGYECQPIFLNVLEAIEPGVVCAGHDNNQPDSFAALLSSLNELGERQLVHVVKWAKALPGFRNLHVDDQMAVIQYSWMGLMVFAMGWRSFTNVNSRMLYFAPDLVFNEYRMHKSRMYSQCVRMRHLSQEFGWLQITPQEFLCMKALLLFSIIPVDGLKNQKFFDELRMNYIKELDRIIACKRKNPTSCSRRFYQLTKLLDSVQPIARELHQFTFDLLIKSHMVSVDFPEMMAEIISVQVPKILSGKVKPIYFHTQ
# test-name: AR immunofluorescence staining, high content imager, VCaP cells
# Assay type: cell-based
# condition-label: maximal AR degradation
property-name: Dmax

Here are 4 molecules together with their reported answers.
Observed Dmax, Androgen Receptor (AR) (Homo sapiens, UniProt P10275), COc1cc(O[C@H]2C(C)(C)[C@H](NC(=O)c3ccc(N4CCO[C@@H](CN5CCN(c6ccc(C(=O)NC7CCC(=O)NC7=O)c(OC)c6)CC5)C4)cc3)C2(C)C)ccc1C#N (some centres unmarked) : ≥ 70%

Lab note: molecule CC1(C)[C@H](NC(=O)c2ccc(C#CC3CCN(C4CCN(c5ccc(C(=O)N[C@H]6CCC(=O)NC6=O)c(F)c5)CC4)CC3)cc2)C(C)(C)[C@H]1Oc1ccc(C#N)c(Cl)c1 tested on Androgen Receptor (AR) (Homo sapiens, UniProt P10275); recorded Dmax was ≥ 70%

Entry COc1cc(O[C@H]2C[C@H](N3CCOC4(CCN(c5ccc(C(=O)N[C@H]6C(C)(C)[C@H](Oc7cc(C)c(C#N)c(C)c7)C6(C)C)cc5)CC4)C3)C2)cc(C(=O)NC2CCC(=O)NC2=O)c1 (some centres unmarked) : Dmax on Androgen Receptor (AR) (Homo sapiens, UniProt P10275) = < 50%

Form: item Cc1cc(O[C@H]2C(C)(C)[C@H](NC(=O)c3ccc(N4CCOC(CN(C(C)C)[C@H]5C[C@@H](Oc6ccc(F)c(C(=O)N[C@H]7CCC(=O)NC7=O)c6)C5)C4)cc3)C2(C)C)cc(C)c1C#N (some centres unmarked) ; test system Androgen Receptor (AR) (Homo sapiens, UniProt P10275); Dmax: 50 to 70%

Next:
Test item COCCN(C[C@H]1CN(c2ccc(C(=O)N[C@H]3C(C)(C)[C@@H](Oc4cc(C)c(C#N)c(C)c4)C3(C)C)cc2)CCO1)[C@H]1C[C@H](Oc2ccc(C(=O)N[C@@H]3CCC(=O)NC3=O)c(F)c2)C1 ; Androgen Receptor (AR) (Homo sapiens, UniProt P10275); reported Dmax was ≥ 70%
